B1: Hairpin Ribozyme (parent)
chain: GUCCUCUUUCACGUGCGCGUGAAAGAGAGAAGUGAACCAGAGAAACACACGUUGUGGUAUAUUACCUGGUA

Variants of: B1
Assay: self-cleavage, relative activity (ratio to wild type); higher = more cleavage; co-transcriptional
Below is a list of entries, each paired with its recorded self-cleavage value.
Respond with the number and no other words.

Worked cases, answers included:
Macromolecule sequence	self-cleavage
GUCCUCUUUCACGUGCGCGUGAAAGAGAGAAGUGAACCAGAGAAUCACACGUUGUGGUAUAUUACCUGUUA [A45U G69U]	0.197
GGCCUCUUUCACGUGCGCGUGAAAGAGAGAAGUGAACCAGAGAAACACACGUUGUGCUAUAUUACCUGGUA [U2G G57C]	0.117
GUCCUCUUUCACGUGCGCGUGAAAGAGAGCAGUGAACCAGAGAAACACACGUUGUUGUAUAUUACCUGGUA [A30C G56U]	0.157
GUCCUCUUUCACGUGCGCGUGAAAGAGAGAAGUGAACCAGAGAAACACACAUUGUGCUAUAUUACCUGGUA [G51A G57C]	0.158
GUCCUCUUUCACGUGCGCGUGAAAGAGAGAAGGGAACCAGAGAAACACACGUUGUGAUAUAUUACCUGGUA [U33G G57A]	0.115
GUCCUCUUUCACGUGCGCGUGAAAGAGAGAAGUGAACCGGAGAAACACACGCUGUGGUAUAUUACCUGGUA [A39G U52C]	0.26

Input: Name the recorded self-cleavage for GUCCUCUUUCACGUGCGCGUGAAAGAGAGAAGUGAACCAGAGAUACACACGUUGUGGUAUGUUACCUGGUA [A44U A61G] .
Output: 0.124

Input: May I ask what self-cleavage has been recorded for GUCCUCUUUCACGUGCGCGUGAAAGAGAGAAGUGAACCAGAGAAACACACGUUGUGGCAUAUUACCUCGUA [U58C G68C] ?
Output: 0.243
